Test system: Human immunodeficiency virus 1
assay summary: Ratio of EC50 for HIV1 NL4-3 harboring L10F/L24I/M46I/L63P/A71V/G73S/V82T amino acid substitution in protease encoding region to EC50 for HIV1 NL4-3
Format: functional
Entries annotated with measured Ratio EC50
Please respond with just the number, no unit label.

>>> test_result("Cc1c(O)cccc1C(=O)N[C@@H](CSc1ccccc1)[C@H](O)CN1C[C@H]2CCCC[C@H]2C[C@H]1C(=O)NC(C)(C)C")
36

Consider now this further molecule.
QUERY: Given COc1ccc(S(=O)(=O)N(C[C@@H]2CCC(=O)N2)C[C@@H](O)[C@H](Cc2ccccc2)NC(=O)O[C@@H]2C[C@@H]3CCO[C@@H]3C2)cc1 , state its recorded Ratio EC50.
RESULT: 2

====

Test system: Human immunodeficiency virus 1
assay summary: Ratio of EC50 for HIV1 NL4-3 harboring L10F/V32I/M46I/I54M//A71V/I84V amino acid substitution in protease encoding region to EC50 for HIV1 NL4-3
Format: functional
observed property: Ratio EC50
Please respond with just the number, no unit label.

Before answering, review these 4 worked examples.
>>> test_result("CC(C)(C)NC(=O)[C@@H]1CN(Cc2cccnc2)CCN1C[C@@H](O)C[C@@H](Cc1ccccc1)C(=O)N[C@H]1c2ccccc2C[C@H]1O.O")
16
>>> test_result("COC(=O)N[C@H](C(=O)N[C@@H](Cc1ccccc1)[C@@H](O)CN(Cc1ccc(-c2ccccn2)cc1)NC(=O)[C@@H](NC(=O)OC)C(C)(C)C)C(C)(C)C")
1
>>> test_result("Cc1c(O)cccc1C(=O)N[C@@H](CSc1ccccc1)[C@H](O)CN1C[C@H]2CCCC[C@H]2C[C@H]1C(=O)NC(C)(C)C")
10
>>> test_result("COc1ccc(S(=O)(=O)N(C[C@@H]2CCC(=O)N2)C[C@@H](O)[C@H](Cc2ccccc2)NC(=O)O[C@@H]2C[C@@H]3CCO[C@@H]3C2)cc1")
2

QUERY: Given CC(C)(C)NC(=O)[C@@H]1C[C@@H]2CCCC[C@@H]2CN1C[C@@H](O)[C@H](Cc1ccccc1)NC(=O)[C@H](CC(N)=O)NC(=O)c1ccc2ccccc2n1 , state its recorded Ratio EC50.
RESULT: 2

====

System: Human immunodeficiency virus 1
assay summary: Antiviral activity against HIV1 TM harboring L10I/K14R/R41K/M46L/I54V/L63P/A71V/V82A/L90M/I93L in protease encoding region infected in human PHA-PBC assessed as inhibition of p24 Gag protein production by ELISA
Assay type: functional, organism-based
test settings: Human immunodeficiency virus 1, TM
observed property: EC50

>>> test_result("CC(C)(C)NC(=O)[C@@H]1CN(Cc2cccnc2)CCN1C[C@@H](O)C[C@@H](Cc1ccccc1)C(=O)N[C@H]1c2ccccc2C[C@H]1O.O")
"> 1000 nM"
>>> test_result("CC(C)c1nc(CN(C)C(=O)N[C@H](C(=O)N[C@@H](Cc2ccccc2)C[C@H](O)[C@H](Cc2ccccc2)NC(=O)OCc2cncs2)C(C)C)cs1")
"> 1000 nM"

Consider now this further molecule.
QUERY: Given Cc1c(O)cccc1C(=O)N[C@@H](CSc1ccccc1)[C@H](O)CN1C[C@H]2CCCC[C@H]2C[C@H]1C(=O)NC(C)(C)C , state its recorded EC50.
RESULT: > 1000 nM
